Molecular target: D614G Spike (SARS-CoV2)
The entries below are paired with their reported Kd.
ASSAY_METRIC: Kd

* S1-RBD-R3-T1-C7 Ab (Ab_29) scFv-Fc (scFv, V domains shown) VH: QVQLQQSGPGLVKPSQTLSLTCAISGDSVSSYSDAWNWIRQSPSRGLEWLGRTYYRSKWYNDYAVSVKSRITINPDTSKNQFSLQLSSVTPEDTAVYYCAREIVATTPFRNYYYGMDVWGQGTTVTVSS VL: NFMLTQPHSVSESPGNTVTISCTRTSGSIASNYVQWYQQRPGSSPTTVIFQDKLRPSGVPDRFSGSIDSSSNSASLTISGLKTEDEADYYCQSYDSSSLWVFGGGTKLTVL | 1.04 pM
* Ab_21 scFv-Fc (scFv, V domains shown) VH: QVQLVQSGGGLVQPGGSLRLSCATSGFTFDDYAMHWVRQAPGKGLEWVSGISWNSGSIGYVDSVKGRFTISRDNRNNKVYLQMNNLRAEDTAVYYCARDWWGSIDHWGLGTLVTVSS VL: QSALTQPRSVSGSPGQSVTISCTGTSSDVGGYDYVSWYQQHPGKAPKLIIYDVSKRPSGVPDRFSGSKSGNTASLTVSGLQAEDEADYYCSSYTSSSPVVFGGGTKLTVL | 8 pM
* Ab_17 scFv-Fc (scFv, V domains shown) VH: QVQLVQSGGGVVQPGRSLRLSCAASGFTFDDYAMHWVRQVPGKGLEWVSGIDWNSGVIGYADSVKGRFTISRDNVKNSLYLQMNSLRTEDSALYYCAKDIGPGGSGSYYAFDIWGQGTTVTVSS VL: QSALTQPASVSGSPGQSITISCTGTSSDVGGSKYVSWYQQHPGKAPKVMIYDVTKRPSGVPDRFSGSKSGNTASLTISGLQAEDEADYYCAAWDDSLNGVVFGGGTKLTVL | 6.8 pM
* S1-RBD-R3-T1-B12 Ab (Ab_31) scFv-Fc (scFv, V domains shown) VH: QVQLVQSGAEVKKPGSSVKVSCKASGGTFSSYTISWVRQAPGQGLEWMGGIIPILGTPNYAQKFQDRVAITADKSTSTAYMELSSLRSEDTAVYYCAVGSGWYSGFDYWGQGTLVTVSS VL: NFMLTQPHSVSESPGKTVTISCTGSSGSIASNYVQWYQQRPGSAPTTVIYEDSQRPSGVPDRFSGSIDSSSNSASLTISGLKTEDEADYYCQSFHNSNPVIFGGGTKLTVL | 9.03 pM
* Ab_13 scFv-Fc (scFv, V domains shown) VH: QVTLKESGPKLVKPTQTLTLTCTFSGFSLSTSGVGVGWIRQPPGKALEWLALIYWDDDKRYSPSLKSRLTIAKDTSKYQVVLTMTNMDPVDTATYYCARISGSGYFYPFDIWGQGTMVTVSA VL: NFMLTQPHSVSESPGKTVTISCTRSSGSIASNYVQWYQQRPGSAPTTVIYEDNQRPSGVPDRFSGSIDSSSNSASLTISGLKTEDEADYYCQSYDSSNLWVFGGGTKLTVL | 8.1 pM
* Ab_26 scFv-Fc (scFv, V domains shown) VH: QVQLVQSGGGLVQPGRSLRLSCAASGFTFDDYAMHWVRQVPGKGLEWVSGIDWNSGVIGYADSVKGRFTISRDNAKNSLYLQMNSLRAEDTALYYCAKDAYSYGFLGAFDIWGQGTMVTVSS VL: LPVLTQPPSVSVAPGQTASITCGGDNIRTKGVHWYQQKPGQAPLLVIYYASDRPSGIPERFSGSSSGNTATLTISRVEAGDEADYYCQVWDSSSDLVVFGGGTTLTVL | 9.97 pM
